Target: UniProtKB P50406
Sequence (P50406 whole entry): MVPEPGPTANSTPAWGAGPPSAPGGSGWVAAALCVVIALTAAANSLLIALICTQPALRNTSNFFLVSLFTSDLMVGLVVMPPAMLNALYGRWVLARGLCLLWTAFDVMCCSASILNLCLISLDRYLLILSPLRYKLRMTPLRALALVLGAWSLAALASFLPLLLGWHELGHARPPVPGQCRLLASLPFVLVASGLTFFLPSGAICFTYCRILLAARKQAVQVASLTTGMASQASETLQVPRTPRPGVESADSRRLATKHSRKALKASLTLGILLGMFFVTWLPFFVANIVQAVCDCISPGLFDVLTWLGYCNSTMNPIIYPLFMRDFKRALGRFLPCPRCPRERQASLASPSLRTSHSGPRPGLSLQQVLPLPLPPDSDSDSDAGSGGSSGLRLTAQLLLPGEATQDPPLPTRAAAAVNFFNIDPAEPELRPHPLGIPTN
Readout: Ki (µM)
Respond numerically; units are µM and should not be typed.

Requested read-out Ki, target or system UniProtKB P50406, entry O=C1Cc2cc(CCN3CCN(c4nsc5ccccc45)CC3)c(Cl)cc2N1
0.076

###

// endpoint pKi / system UniProtKB P28223
Sequence (P28223 whole entry): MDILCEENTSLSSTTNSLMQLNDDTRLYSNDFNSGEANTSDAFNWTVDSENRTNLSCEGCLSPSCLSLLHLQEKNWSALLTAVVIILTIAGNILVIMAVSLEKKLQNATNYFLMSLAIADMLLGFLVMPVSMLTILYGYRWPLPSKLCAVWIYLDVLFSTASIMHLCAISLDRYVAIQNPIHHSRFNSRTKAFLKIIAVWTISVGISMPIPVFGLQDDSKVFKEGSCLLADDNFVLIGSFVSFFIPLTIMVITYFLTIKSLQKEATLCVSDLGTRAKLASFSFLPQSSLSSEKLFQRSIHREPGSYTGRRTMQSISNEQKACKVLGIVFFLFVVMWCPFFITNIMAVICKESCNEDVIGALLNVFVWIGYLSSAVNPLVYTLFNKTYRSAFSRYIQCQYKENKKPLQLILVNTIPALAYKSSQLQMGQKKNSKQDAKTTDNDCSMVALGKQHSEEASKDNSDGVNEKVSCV
Please express pKi as -log10 of the molar concentration.

O=C(CCCN1C2CCC1CC(c1ccccc1)C2)c1ccc(F)cc1 (configuration not stated)    6.97

Shifting focus to the compound that follows.
Requested read-out pKi, target or system UniProtKB P28223, entry O=C(CCCN1C2CCC1CC(O)(c1ccccc1)C2)c1ccc(F)cc1 (configuration not stated)
7.91
